Entry source: ChEMBL document CHEMBL5442219

target: Alpha-1D adrenergic receptor (Homo sapiens); conditions: Compound concentration 10 µM
Description: PDSP Primary Binding target: ADRA1D - Compounds are tested at 10 uM concentration, plate are incubated at room temperature in the dark for 90 minutes. Reaction are stopped by vacuum filtration onto 0.3% polyethyleneimine soaked filter mats using Filtermate harvester. Scintilation cocktail is then melted onto microwave-dried filters on a hot plate and the radio activity is counted in Microbia counter.
Parameter Measured: inhibition (%)
Reply numerically in %, unit not repeated.

Check out these entries, answers already filled in.
- Compound: "CCCCN1CCC(COC(=O)c2cc(Cl)c(N)c3c2OCCO3)CC1"
  inhibition, %: 24.6
- Compound: "Cc1nc(-c2ccc(-c3ccc(C(=O)N4CCc5cc6c(cc54)C4(CCN(C)CC4)CO6)cc3)c(C)c2)no1"
  inhibition, %: 66.3
- Compound: "CN(C(=O)Cc1ccc(Cl)c(Cl)c1)C(CN1CCCC1)c1cccc(OCC(=O)O)c1 (stereo unspecified)"
  inhibition, %: 5.15
- Compound: "N=C(N)SCCc1c[nH]cn1"
  inhibition, %: 8.64
- Compound: "FC(F)(F)c1cccc(-c2noc(-c3cc(-c4ccccc4)c(C(F)(F)F)s3)n2)c1"
  inhibition, %: 1.55

Now look at this one.
Query: Which value of inhibition has been reported for `COc1ccccc1CN[C@H]1C2CCN(CC2)[C@H]1C(c1ccccc1)c1ccccc1` in the records?
Result: 11.1
